Ref: patent US20220195063A1

Biological target: T1, human SIRPγ (huSIRPγ) (human, UniProt Q9P1W8 29-360, limits assumed, biotinylated in the SPR assay)
T1 construct: Coated on the plate in ELISA, biotinylated and captured in SPR
T1 sequence (Q9P1W8 29-360 limits assumed): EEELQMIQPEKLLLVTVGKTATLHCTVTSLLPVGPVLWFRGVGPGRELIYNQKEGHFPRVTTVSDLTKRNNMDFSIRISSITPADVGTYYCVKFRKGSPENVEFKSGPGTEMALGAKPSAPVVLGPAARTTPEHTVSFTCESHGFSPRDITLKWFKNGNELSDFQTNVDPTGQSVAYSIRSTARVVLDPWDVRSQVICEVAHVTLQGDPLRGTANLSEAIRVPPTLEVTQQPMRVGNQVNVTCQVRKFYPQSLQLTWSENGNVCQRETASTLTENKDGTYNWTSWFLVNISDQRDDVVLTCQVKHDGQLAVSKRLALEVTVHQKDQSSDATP
Test: ELISA, antigen coated
test readout: EC50

* anti-SIRPα antibody 9 (antibody, human IgG1, kappa, L234A L235A, V domains shown, Rabbit variable regions on human IgG1 LALA / kappa) VH: QSMEESGGRLVTPGTPLTLTCTASGFSLSNYGVSWVRQAPGKGLEWIGIIYGGSDITAYASWAKGRFTISKTSTTVDLTITSPTTEDTATYFCAKSYTNGMDYYNIWGPGTLVTVSL VL: AFDLTQTPSSVEAPVGGTVIIKCQASQSISSYLAWYQQKPGQPPKLLIYSASTLASGVSSRFKGSGSETQFPLTISDLESADAATYYCQSYYGSRSNVFGGGTEVVVKR | > 100 µg/mL

If you can, please state the reported EC50 value of anti-SIRPα antibody 7 (antibody, human IgG1, kappa, L234A L235A, V domains shown, Chimeric: rabbit variable regions on human IgG1 LALA / kappa; also called chimeric antibody 7) VH: RSVEESGGRLVTPGTPLTLTCTVSGFSLSSHGISWVRQAPGKGLEYIGTIGTGVITYFASWAKGRFTGSKTSTTVDLKITSPTTEDTATYFCARGSAWNDPFDPWGPGTLVTVSS VL: ALVMTQTPASVSAAVGGTVTTKCQASQSVYGNNDLAWYQHKPGQPPKLLIYLASTLATGVPSRFSGSGSGTQFTLTITGVQSDDAATYYCLGGGDDEADNVFGGGTEVVVKR .
> 100 µg/mL
